// values below are reported Fold Increase in Lag Time; nucleation assay; 10 mole %
- ASSAY TARGET: natural β-amyloid peptide β-AP1-40 (human)
- Sequence (peptide, as listed by the source): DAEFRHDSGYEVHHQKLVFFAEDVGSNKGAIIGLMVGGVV
- TEST PROTOCOL: cell-based or functional assay
Ends that are not written are not given here. * marks the point of attachment. Cholyl = C[C@H](CCC(=O)*)[C@H]1CC[C@H]2[C@@H]3[C@H](O)C[C@@H]4C[C@H](O)CC[C@]4(C)[C@H]3C[C@H](O)[C@]12C
Numbers only here, please. The scale is fold.

{"columns": ["BINDER", "REPORTED MEASUREMENT"],
 "data": [
  ["Cholyl-QKLVF-OH (SMILES CC(C)C[C@H](NC(=O)[C@H](CCCCN)NC(=O)[C@H](CCC(N)=O)NC(=O)CC[C@@H](C)[C@H]1CC[C@H]2[C@@H]3[C@H](O)C[C@@H]4C[C@H](O)CC[C@]4(C)[C@H]3C[C@H](O)[C@]12C)C(=O)N[C@H](C(=O)N[C@@H](Cc1ccccc1)C(=O)O)C(C)C) [cholyl-Aβ15-19]", 1.6],
  ["Cholyl-HHQKLVFF [cholyl-Aβ13-20]", 2.2]
]}

The recorded Fold Increase in Lag Time; nucleation assay; 10 mole % for entry Cholyl-KLVFF-NH2 [cholyl-Aβ16-20-amide] equals 2.7

Field Fold Increase in Lag Time; nucleation assay; 10 mole % (entry Cholyl-KLVFF-OH [cholyl-Aβ16-20] ) reads 2.4

Looking up Cholyl-QKLVFF-OH (SMILES CC(C)C[C@H](NC(=O)[C@H](CCCCN)NC(=O)[C@H](CCC(N)=O)NC(=O)CC[C@@H](C)[C@H]1CC[C@H]2[C@@H]3[C@H](O)C[C@@H]4C[C@H](O)CC[C@]4(C)[C@H]3C[C@H](O)[C@]12C)C(=O)N[C@H](C(=O)N[C@@H](Cc1ccccc1)C(=O)N[C@@H](Cc1ccccc1)C(=O)O)C(C)C) [cholyl-Aβ15-20] , I found its Fold Increase in Lag Time; nucleation assay; 10 mole % recorded as 2.1

Form field Fold Increase in Lag Time; nucleation assay; 10 mole %, entry Cholyl-HDSGYEVHHQKLVFF [cholyl-Aβ6-20] : 2
